experiment: Phase 1 multiple ascending dose (MAD) study, intranasal, pharmacokinetics; format: in vivo, human; conditions: human, in vivo, 5 mg
observation type: AUC (ng·h/mL)
All answers are understood in ng·h/mL, so give the number only.

Lookup: State, in one line, measured AUC of `Cc1cc(C[C@@H](NC(=O)N2CCC(c3cc4ccccc4[nH]c3=O)CC2)C(=O)N2CCN(C3CCN(C)CC3)CC2)cc2cn[nH]c12`
Found: 19

###

assay: Phase 1 multiple ascending dose (MAD) study, intranasal, pharmacokinetics; format: in vivo, human; conditions: human, in vivo, 20 mg
observation type: AUC (ng·h/mL)
All answers are understood in ng·h/mL, so give the number only.

Lookup: State, in one line, measured AUC of `Cc1cc(C[C@@H](NC(=O)N2CCC(c3cc4ccccc4[nH]c3=O)CC2)C(=O)N2CCN(C3CCN(C)CC3)CC2)cc2cn[nH]c12`
Found: 87.9
